Assay: Octanol/PBS distribution coefficient (logD7.4)
Format: physicochemical
Settings: pH 7.4
measured.quantity: logD

// query GET /values?readout=logD&item= CCCC[C@@H](C(=O)N[C@@H](CC(=O)O)C(=O)N[C@@H](Cc1cccc2ccccc12)C(N)=O)N(C)C(=O)[C@H](Cc1c[nH]c2ccccc12)NC(=O)CCNC(=O)CC(O)CNC(=O)CC(O)CNC(=O)CN1CCN(CC(=O)O)CCN(CC(=O)O)CCN(CC(=O)O)CC1 (stereo partly shown) [[^177Lu]Lu-2, metal not drawn]
// result -2.18

---

Assay: Biodistribution blocking experiment with 1000-fold excess of non-radiolabeled peptide
Format: in vivo, mice
Conditions: female, BALB/c nude, mouse, femur, iv, total radioactivity, 4 h p.i., 1000-fold excess of non-radiolabeled peptide, n=1; read-out: uptake in femur, blocking
Experimental: Then, after 7–11 days, when visible tumor xenografts were formed, groups of 5 mice were injected intravenously via a lateral tail vein with ~0.5 MBq of radiolabeled peptide, corresponding to 20 pmol of peptide, in a total volume of ~150 µL in PBS/0.5% BSA. […] For quantification, a 1:1, 1:10 and 1:50 standard was prepared using aliquots of the injection solution mixed with PBS/0.5% BSA. […] Results were expressed as percentage of injected activity per gram of tissue (%IA/g).
measured.quantity: tissue uptake at 4 h (%ID/g)
Note: unit %ID/g is implicit; provide only the numeric part.

// query Would you kindly share the measured tissue uptake at 4 h for CCCC[C@@H](C(=O)N[C@@H](CC(=O)O)C(=O)N[C@@H](Cc1cccc2ccccc12)C(N)=O)N(C)C(=O)[C@H](Cc1c[nH]c2ccccc12)NC(=O)CNC(=O)[C@H](Cc1ccc(O)cc1)NC(=O)[C@H](C)NC(=O)[C@@H](CCC(=O)O)NC(=O)CN1CCN(CC(=O)O)CCN(CC(=O)O)CCN(CC(=O)O)CC1 [[^177Lu]Lu-DOTA-MGS5, metal not drawn, reference compound] ?
// result 0.04

---

Assay: in vivo
Parameters: species or system mice
Conditions: female, BALB/c nude, mouse, iv, 20 pmol, total radioactivity, uptake in spleen
measured.quantity: tissue uptake at 168 h (%ID/g)
Write down the numeric answer in %ID/g and omit the unit.

// query Look at this compound and give its reported tissue uptake at 168 h. CCCC[C@@H](C(=O)N[C@@H](CC(=O)O)C(=O)N[C@@H](Cc1cccc2ccccc12)C(N)=O)N(C)C(=O)[C@H](Cc1c[nH]c2ccccc12)NC(=O)CCNC(=O)CC(O)CNC(=O)CC(O)CNC(=O)CN1CCN(CC(=O)O)CCN(CC(=O)O)CCN(CC(=O)O)CC1 (stereo partly shown) [[^177Lu]Lu-2, metal not drawn]
// result 0.09

---

Experiment: in vivo
Parameters: species or system mice
Conditions: female, BALB/c nude, mouse, iv, 20 pmol, total radioactivity, uptake in pancreas
measured.quantity: tissue uptake at 1 h (%ID/g)
Form entry: value (%ID/g) — number only.

// query Sample CCCC[C@@H](C(=O)N[C@@H](CC(=O)O)C(=O)N[C@@H](Cc1cccc2ccccc12)C(N)=O)N(C)C(=O)[C@H](Cc1c[nH]c2ccccc12)NC(=O)CCNC(=O)CC(O)CNC(=O)CC(O)CNC(=O)CN1CCN(CC(=O)O)CCN(CC(=O)O)CCN(CC(=O)O)CC1 (stereo partly shown) [[^177Lu]Lu-2, metal not drawn] — what was its tissue uptake at 1 h?
// result 0.85

---

Assay: in vivo
Design: species or system mice
Conditions: female, BALB/c nude, mouse, iv, 20 pmol, total radioactivity, uptake in lung
measured.quantity: tissue uptake at 24 h (%ID/g)
Note: unit %ID/g is implicit; provide only the numeric part.

// query Would you kindly share the measured tissue uptake at 24 h for CCCC[C@@H](C(=O)N[C@@H](CC(=O)O)C(=O)N[C@@H](Cc1cccc2ccccc12)C(N)=O)N(C)C(=O)[C@H](Cc1c[nH]c2ccccc12)NC(=O)CCNC(=O)CC(O)CNC(=O)CC(O)CNC(=O)CN1CCN(CC(=O)O)CCN(CC(=O)O)CCN(CC(=O)O)CC1 (stereo partly shown) [[^177Lu]Lu-2, metal not drawn] ?
// result 0.09

---

Test: Biodistribution blocking experiment with 1000-fold excess of non-radiolabeled peptide
Assay type: in vivo, mice
Conditions: female, BALB/c nude, mouse, stomach, iv, total radioactivity, 4 h p.i., 1000-fold excess of non-radiolabeled peptide, n=1; read-out: uptake in stomach, blocking
Procedure: Then, after 7–11 days, when visible tumor xenografts were formed, groups of 5 mice were injected intravenously via a lateral tail vein with ~0.5 MBq of radiolabeled peptide, corresponding to 20 pmol of peptide, in a total volume of ~150 µL in PBS/0.5% BSA. […] For quantification, a 1:1, 1:10 and 1:50 standard was prepared using aliquots of the injection solution mixed with PBS/0.5% BSA. […] Results were expressed as percentage of injected activity per gram of tissue (%IA/g).
measured.quantity: tissue uptake at 4 h (%ID/g)
Give just the number in %ID/g; leave the unit off.

// query // returns reported tissue uptake at 4 h for input CCCC[C@@H](C(=O)N[C@@H](CC(=O)O)C(=O)N[C@@H](Cc1cccc2ccccc12)C(N)=O)N(C)C(=O)[C@H](Cc1c[nH]c2ccccc12)NC(=O)CNC(=O)[C@H](Cc1ccc(O)cc1)NC(=O)[C@H](C)NC(=O)[C@@H](CCC(=O)O)NC(=O)CN1CCN(CC(=O)O)CCN(CC(=O)O)CCN(CC(=O)O)CC1 [[^177Lu]Lu-DOTA-MGS5, metal not drawn, reference compound]
// result 0.09

---

Assay: in vivo
Parameters: species or system mice
Settings: female, BALB/c nude, mouse, iv, 20 pmol, total radioactivity, uptake in blood
measured.quantity: tissue uptake at 168 h (%ID/g)
A number alone suffices; assume %ID/g.

// query Suppose we examine the compound CCCC[C@@H](C(=O)N[C@@H](CC(=O)O)C(=O)N[C@@H](Cc1cccc2ccccc12)C(N)=O)N(C)C(=O)[C@H](Cc1c[nH]c2ccccc12)NC(=O)CCNC(=O)CC(O)CNC(=O)CC(O)CNC(=O)CN1CCN(CC(=O)O)CCN(CC(=O)O)CCN(CC(=O)O)CC1 (stereo partly shown) [[^177Lu]Lu-2, metal not drawn] ; what tissue uptake at 168 h value has been reported?
// result 0.01

---

Assay: in vivo
Set-up: species or system mice
Details: female, BALB/c nude, mouse, iv, 20 pmol, total radioactivity, uptake in lung
measured.quantity: tissue uptake at 168 h (%ID/g)
Respond with the bare value in %ID/g.

// query If you can, please state the reported tissue uptake at 168 h value of CCCC[C@@H](C(=O)N[C@@H](CC(=O)O)C(=O)N[C@@H](Cc1cccc2ccccc12)C(N)=O)N(C)C(=O)[C@H](Cc1c[nH]c2ccccc12)NC(=O)CCNC(=O)CC(O)CNC(=O)CC(O)CNC(=O)CN1CCN(CC(=O)O)CCN(CC(=O)O)CCN(CC(=O)O)CC1 (stereo partly shown) [[^177Lu]Lu-2, metal not drawn] .
// result 0.02

---

Experiment: in vivo
Design: species or system mice
Details: female, BALB/c nude, mouse, iv, 20 pmol, total radioactivity, uptake in pancreas
measured.quantity: tissue uptake at 72 h (%ID/g)
API: value field is a number in %ID/g; no unit string.

// query Need tissue uptake at 72 h of CCCC[C@@H](C(=O)N[C@@H](CC(=O)O)C(=O)N[C@@H](Cc1cccc2ccccc12)C(N)=O)N(C)C(=O)[C@H](Cc1c[nH]c2ccccc12)NC(=O)CCNC(=O)CC(O)CNC(=O)CC(O)CNC(=O)CN1CCN(CC(=O)O)CCN(CC(=O)O)CCN(CC(=O)O)CC1 (stereo partly shown) [[^177Lu]Lu-2, metal not drawn] , thanks.
// result 0.28

---

Test: Biodistribution blocking experiment with 1000-fold excess of non-radiolabeled peptide
Type: in vivo, mice
Conditions: female, BALB/c nude, mouse, in vivo, iv, total radioactivity, uptake in pancreas, blocking
measured.quantity: tissue uptake at 4 h

// query State the recorded tissue uptake at 4 h for this entry: CCCC[C@@H](C(=O)N[C@@H](CC(=O)O)C(=O)N[C@@H](Cc1cccc2ccccc12)C(N)=O)N(C)C(=O)[C@H](Cc1c[nH]c2ccccc12)NC(=O)CCNC(=O)CC(O)CNC(=O)CC(O)CNC(=O)CN1CCN(CC(=O)O)CCN(CC(=O)O)CCN(CC(=O)O)CC1 (stereo partly shown) [[^177Lu]Lu-2, metal not drawn]
// result 0.05 %ID/g

---

Assay: in vivo
Set-up: species or system mice
Conditions: female, BALB/c nude, mouse, iv, 20 pmol, total radioactivity, Tumor-to-stomach ratio
measured.quantity: tissue to tissue ratio at 168 h
Note: the reply should be a number with no unit written.

// query Return reported tissue to tissue ratio at 168 h; argument: CCCC[C@@H](C(=O)N[C@@H](CC(=O)O)C(=O)N[C@@H](Cc1cccc2ccccc12)C(N)=O)N(C)C(=O)[C@H](Cc1c[nH]c2ccccc12)NC(=O)CCNC(=O)CC(O)CNC(=O)CC(O)CNC(=O)CN1CCN(CC(=O)O)CCN(CC(=O)O)CCN(CC(=O)O)CC1 (stereo partly shown) [[^177Lu]Lu-2, metal not drawn]
// result 1.4
